System: CR-N309K parasites
Experiment: Growth inhibition assay (72 h, LDH activity)
Type: cell-based, Plasmodium falciparum
Conditions: Plasmodium falciparum, 72 h, read-out: EC50 (95% confidence interval), Fig 2D, 72 h, n = 3
EXPERIMENTAL READOUT: EC50

Bench note, CR-N309K parasites: Cc1cc(Cl)c(S(=O)(=O)N2CCCC2)cc1OCC(=O)NC1CCCCC1 [M-833] , EC50 reads 4.03 µM
